Source: patent US20190062453A1

target: T1, human DR5 ECD-Avi-his (human, UniProt O14763 56-207); test: SPR, rabbit IgG captured by anti rabbit, monomeric DR5 injected
T1 construct: also called recombinant human DR5 (monomeric His-Avi fusion protein); monomeric human DR5
measured-property: Kd (nM)
Field format: number, assumed nM, no unit text.

Asked: Record request: Kd value, item DR5TAA-0016 (antibody, V domains shown) VH: QSLEESGGRLVKPDETLTLTCTVSGFSLNNYAMSWVRQAPGKGLEWIGMINKYGTKYYATWTKGRATISKTSTTLDLEITSPTTEDTATYFCARVRYAGDDYAEWLDVWGQGILVTVSS VL: DIVMTQTASPVSAAVGGTVTINCQASQSISSSYVSWYQQKPGQPPKLLIYKASTLASGVPSRFSGSGSGTQLSLTIRGVQCDDAATYYCLYGYSDVSSSEYVFGGGTEVVVRG
Given back: 1.45
